experimentalProtocol: folding stability dG unfold from chymotrypsin proteolysis; higher = more stable
measurementName: folding stability dG unfold (kcal/mol)
API: value field is a number in kcal/mol; no unit string.

[in] Recorded folding stability dG unfold of SPRIKIDIPFFNANGHPQEVEIEYSPTDGMLMIKFPRNGYYIMIQIKRIEWEDGKLEIELDIFIMPPGDFSA [r9_587_TrROS] , please.
[out] 4.55

[in] Recorded folding stability dG unfold of SANWHRFTIEAWVPVRDPNGKPIRPEQVEEQAERIANELWPRGFPIKDVTVEQHPDGWVRITATIEVPDSAG [r14_470_TrROS] , please.
[out] 3.14

[in] Recorded folding stability dG unfold of SAGGSAGGSAAAPPPPTITITVEVRTLPDGTVEITATATLPDGTTLTVTLRINADGSLTATSAGGSAGGSAG [r3_259_TrROS_Hall] , please.
[out] 3.4

[in] Recorded folding stability dG unfold of SAGGSAGGSAGEPEIEIEVEERDGELVLRARVRDRETGEEYEVVVRVRPDGPIEITEIRPSAGGSAGGSAGG [r17_113_TrROS_Hall] , please.
[out] 2.55

[in] Recorded folding stability dG unfold of SAGGSAMLDNLVPVGSVTVVERFPDGLLRVVNYTFWRDPESGAWYVSADVEVFPLLPEDPVLLEAGSAGGSA [r15_207_TrMRF] , please.
[out] 3.88

[in] Recorded folding stability dG unfold of SAGGPPWVRVVDVRIEPVEDGGERRITLTFPPDVTLEEVRERVREMLPPGAEAELTVERVEVRPVLASAGGS [r16_393_JUSTAS] , please.
[out] 1.56

[in] Recorded folding stability dG unfold of SAGGSAGGSAGGPVFTPVGAGDEDTVTTETLPDGSPVLRYTVPGTGVVEVALPDGTLLAESAGGSAGGSAGG [r11_601_JUSTAS] , please.
[out] -1.66

The reported measurements were obtained from the supplement of paper PMC12764529.
